Target Entity: T1, 4H717-AA
T1 chain: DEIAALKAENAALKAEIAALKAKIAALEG
Experiment Description: two-hybrid library CCmax;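 also: natural log of median RNA to DNA barcode read ratio; higher means stronger binding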
Reported Conditions: mean of both orientations

[
  {
    "Binder": "DKIAALEAKNAALEAKIAALEAEIAALKG [4H2466-AA]",
    "interaction score": -1.06
  },
  {
    "Binder": "DKNAALEAKIAALKAKIAALEAENAALEG [4H3427-AA]",
    "interaction score": -1.29
  },
  {
    "Binder": "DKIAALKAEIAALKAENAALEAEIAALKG [4H2642-AA]",
    "interaction score": -1.13
  },
  {
    "Binder": "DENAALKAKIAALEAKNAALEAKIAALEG [4H1845-AA]",
    "interaction score": -1.01
  },
  {
    "Binder": "DEIAALEAKIAALKAEIAALKAKNAALEG [4H335-AA]",
    "interaction score": -1.46
  },
  {
    "Binder": "DKIAALEAKNAALKAEIAALKAEIAALEG [4H2505-AA]",
    "interaction score": -0.029
  },
  {
    "Binder": "DEIAALKAEIAALEAKNAALEAKNAALKG [4H568-AA]",
    "interaction score": -1.75
  }
]
